target of assay: Vasopressin V1a receptor (Homo sapiens, UniProt P37288)
assay notes: Activity at human vasopressin V1a receptor expressed in CHO cells assessed as inhibition of agonist-induced inositol phosphate accumulation at 1 uM
Type: functional, cell-based
Design: scale not given: the % may be the effect or the level left
Sequence (P37288 whole entry, looked up): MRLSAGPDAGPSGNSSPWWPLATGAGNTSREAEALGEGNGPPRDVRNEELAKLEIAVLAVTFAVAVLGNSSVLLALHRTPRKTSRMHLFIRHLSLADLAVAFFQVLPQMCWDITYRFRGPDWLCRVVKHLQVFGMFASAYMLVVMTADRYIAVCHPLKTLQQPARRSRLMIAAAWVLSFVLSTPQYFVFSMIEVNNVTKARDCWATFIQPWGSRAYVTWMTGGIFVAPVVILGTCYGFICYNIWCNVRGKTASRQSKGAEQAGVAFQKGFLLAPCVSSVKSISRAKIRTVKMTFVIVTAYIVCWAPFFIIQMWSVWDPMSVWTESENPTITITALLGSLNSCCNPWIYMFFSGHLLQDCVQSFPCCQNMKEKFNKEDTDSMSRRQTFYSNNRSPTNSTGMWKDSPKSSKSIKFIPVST
observed property: Activity

Previously resolved entries follow.
Cc1ccn(-c2ccc(C(=O)N3Cc4cccn4Cc4ccccc43)c(Cl)c2)n1: 33%
COc1cc(OC2CCN(C(C)=O)CC2)ccc1C(=O)N1CCC(N2C(=O)OCc3ccccc32)CC1: 18%

Please examine the following record next.
Name the recorded Activity for CC(=O)NCc1ccc(C(=O)N2Cc3cnn(C)c3Nc3ccccc32)cc1C . 27%

###

target of assay: Oxytocin receptor (Homo sapiens)
assay notes: Activity at human oxytocin receptor expressed in CHO cells assessed as inhibition of agonist-induced inositol phosphate accumulation at 1 uM
Assay type: functional, cell-based
Set-up: scale not given: the % may be the effect or the level left
observed property: Activity

Previously resolved entries follow.
Cc1cc(C(=O)N2Cc3cnn(C)c3Nc3ccccc32)ccc1CNC(=O)N1CCCC1: 37%
Cc1cc(C(=O)N2Cc3cnn(C)c3Nc3ccccc32)ccc1CNC(=O)N1CCC[C@H]1C(=S)N1CCCN(C)CC1: 16%

Name the recorded Activity for Cc1cc(C(=O)N2Cc3cnn(C)c3Nc3ccccc32)ccc1CNC(=O)N(C)C . 30%

###

target of assay: Vasopressin V1a receptor (Homo sapiens, UniProt P37288)
assay notes: Activity at human vasopressin V1a receptor expressed in CHO cells assessed as inhibition of agonist-induced inositol phosphate accumulation
Format: functional, cell-based
observed property: log10 Kinact (log10 of the value in nM)
Quick note: numbers are log10 of Kinact, with nM as the unit.

Previously resolved entries follow.
Cc1cc(C(=O)N2Cc3cccn3Cc3ccccc32)ccc1CNC(=O)N1CCC[C@H]1C(=S)N1CCCN(C)CC1: 2.88
O=C(Nc1ccc(C(=O)N2CCCCc3ccccc32)cc1)c1ccccc1-c1ccccc1: 1.80
Cc1cc(C(=O)N2Cc3cnn(C)c3Nc3ccccc32)ccc1CNC(=O)N(C)C: 2.13
Cc1cc(C(=O)N2Cc3cnn(C)c3Nc3ccccc32)ccc1CNC(=O)N1CCCC1: 2.27
Cc1cc(C(=O)N2Cc3cnn(C)c3Nc3ccccc32)ccc1CNC(=O)N1CCC[C@H]1C(=S)N1CCCN(C)CC1: 2.43

Vasopressin V1a receptor (Homo sapiens, UniProt P37288) / log10 Kinact / Cc1ccn(-c2ccc(C(=O)N3Cc4cnn(C)c4Nc4ccccc43)cc2C)n1 : value? 1.51

Vasopressin V1a receptor (Homo sapiens, UniProt P37288) / log10 Kinact / Cc1ccn(-c2ccc(C(=O)N3Cc4cnn(C)c4Nc4ccccc43)c(Cl)c2)n1 : value? 1.11

Vasopressin V1a receptor (Homo sapiens, UniProt P37288) / log10 Kinact / Cc1cc(C(=O)N2Cc3cnn(C)c3Nc3ccccc32)ccc1NC(=O)c1ccccc1-c1ccccc1 : value? 2.61

###

target of assay: Vasopressin V2 receptor (Homo sapiens)
assay notes: Activity at human vasopressin V2 receptor expressed in CHO cells assessed as cAMP accumulation at 1 uM
Assay type: functional, cell-based
API: label(entry) gives 1 (yes) if the entry's Emax is strictly smaller than 20%; on equality or larger values it gives 0 (no).

See these solved cases before continuing.
Cc1cc(C(=O)N2Cc3cnn(C)c3Nc3ccccc32)ccc1CNC(=O)N1CCC[C@H]1C(=S)N1CCCN(C)CC1: 0 (no)
Cc1ccn(-c2ccc(C(=O)N3Cc4cnn(C)c4Nc4ccccc43)c(Cl)c2)n1: 0 (no)
Cc1ccn(-c2ccc(C(=O)N3Cc4cccn4Cc4ccccc43)c(Cl)c2)n1: 0 (no)
Cc1cc(C(=O)N2Cc3cccn3Cc3ccccc32)ccc1CNC(=O)N1CCC[C@H]1C(=S)N1CCCN(C)CC1: 1 (yes)

Moving on to another compound below.
Record Cc1cc(C(=O)N2Cc3cnn(C)c3Nc3ccccc32)ccc1CNC(=O)N(C)C : is its Emax strictly below 20%? 1 (yes)

###

Measured pKi, listed per entry.
target of assay: Vasopressin V1a receptor (Homo sapiens)
assay notes: Displacement of [3H]AVP from human vasopressin V1a receptor expressed in CHO cells
Format: cell-based
condition notes: read-out: Ki
Sequence (P37288 whole entry): as the sequence (P37288 whole entry, looked up) above
pKi: −log10 of the molar value.

Cc1cc(C(=O)N2CCC(N3C(=O)OCc4ccccc43)CC2)ccc1CNC(=O)N1CCC[C@H]1C(=S)N1CCCN(C)CC1: < 5.30

Vasopressin V1a receptor (Homo sapiens) / pKi / CN1CCCN(C(=S)[C@@H]2CCCN2C(=O)NCc2ccc(C(=O)N3Cc4cccn4Cc4ccccc43)c(Cl)c2)CC1 : value? < 5.30

Vasopressin V1a receptor (Homo sapiens) / pKi / Cc1cc(C(=O)N2Cc3cccn3Cc3ccccc32)ccc1CNC(=O)N1CCC[C@H]1C(=S)N1CCCN(C)CC1 : value? < 6.00

Vasopressin V1a receptor (Homo sapiens) / pKi / CC(=O)NCc1ccc(C(=O)N2Cc3cnn(C)c3Nc3ccccc32)cc1C : value? < 5.30

###

target of assay: Vasopressin V2 receptor (Homo sapiens, UniProt P30518)
Sequence (P30518 whole entry): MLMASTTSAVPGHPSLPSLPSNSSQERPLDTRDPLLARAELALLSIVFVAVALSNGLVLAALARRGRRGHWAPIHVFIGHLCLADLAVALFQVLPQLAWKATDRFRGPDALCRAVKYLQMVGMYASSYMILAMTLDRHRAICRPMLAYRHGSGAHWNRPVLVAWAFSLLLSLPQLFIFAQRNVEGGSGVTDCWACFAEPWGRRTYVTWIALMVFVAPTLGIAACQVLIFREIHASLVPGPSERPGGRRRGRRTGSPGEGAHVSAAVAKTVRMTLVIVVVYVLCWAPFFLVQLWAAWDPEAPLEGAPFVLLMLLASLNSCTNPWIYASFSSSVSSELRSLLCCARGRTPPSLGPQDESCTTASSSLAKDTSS
assay notes: Displacement of [3H]AVP from human vasopressin V2 receptor expressed in CHO cells
Assay type: cell-based
condition notes: read-out: Ki
observed property: Ki

Name the recorded Ki for CN1CCCN(C(=S)[C@@H]2CCCN2C(=O)NCc2ccc(C(=O)N3Cc4cccn4Cc4ccccc43)c(Cl)c2)CC1 . > 5000 nM

Name the recorded Ki for Cc1cc(C(=O)N2Cc3cnn(C)c3Nc3ccccc32)ccc1CNC(=O)N1CCC[C@H]1C(=S)N1CCCN(C)CC1 . > 1000 nM

Name the recorded Ki for Cc1cc(C(=O)N2Cc3cnn(C)c3Nc3ccccc32)ccc1CNC(=O)N1CCCC1 . > 1000 nM

Name the recorded Ki for Cc1cc(C(=O)N2Cc3cnn(C)c3Nc3ccccc32)ccc1CNC(=O)N(C)C . > 1000 nM
